Target: T1, Brn2 DNA-binding domain (BD-Brn2) (Mus musculus (B6), UniProt P31360 336-435)
T1 sequence: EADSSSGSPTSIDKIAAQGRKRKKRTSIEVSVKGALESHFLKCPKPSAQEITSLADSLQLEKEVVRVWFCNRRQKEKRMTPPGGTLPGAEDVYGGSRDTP
Assay: EMSA; 10% glycerol, 20 mM HEPES pH 7.8, 45 mM KCl, 10 mM NaCl, 1 mM EDTA, 1 mM DTT, 0.2 ug/uL BSA, 0.1% NP-40, 50 ng poly-dIdC; 20 ng each GST protein; room temperature 30 min (heterodimers 4 C); 6% PAGE 0.25x TBE
Details: protein: recombinant; tags: GST (N-terminal, pGEX-6P-1); label: 32P-dCTP fill-in of the 5' (dG)5 overhangs of both strands (Methods; control probes are given with GGG)
metric: binding result

54 (dsDNA) DNA 1: GGGGGAGGTGTTAAGTGTGGAGTCGTGAGAACAACAATCCAGATAGCCCCC DNA 2: GGGGGCTATCTGGATTGTTGTTCTCACGACTCCACACTTAACACCTCCCCC
no binding
27 (dsDNA) DNA 1: GGGGGCACACCTGTTTGTTTTCCACTTCACAGAGGAGGCATAGGAAACTCCCCC DNA 2: GGGGGAGTTTCCTATGCCTCCTCTGTGAAGTGGAAAACAAACAGGTGTGCCCCC
no binding
